Tested on: modified version of the GPR119 receptor (94% identity to human receptor)
Assay: cAMP production assay (LANCE cAMP kit, TR-FRET) in HEK-293 cells
Type: cell-based
Conditions: increase in cAMP relative to basal levels; agonist activity if 1.5-fold or greater
Method: The assay utilized HEK-293 cells that stably express a modified version of the GPR119 receptor (94% identity to human receptor), under the control of a CMV promoter containing a tet-on element for tetracycline-inducible expression. GPR119 agonist-induced cyclic AMP (cAMP) production was measured in this cell line using the LANCE cAMP kit (Perkin Elmer, Waltham, Mass.). […] Cellular cAMP levels were then determined by interpolation of raw signal data using a cAMP standard curve. […]
Label condition met for high-side Fold over baseline (at or above 3) and condition not met for low-side Fold over baseline (below it).

COMPOUND: CCS(=O)(=O)c1ccc(OC2CCN(C3CCN(c4nc(C(C)C)ns4)CC3)C2=O)c(F)c1 (stereo not shown)
TGT: modified version of the GPR119 receptor (94% identity to human receptor)
ASSIGNED_LABEL: condition met
--
COMPOUND: CS(=O)(=O)c1ccc(N[C@H]2CCN(C3CCN(c4nc(-c5ccccc5)ns4)CC3)C2=O)c(F)c1
TGT: modified version of the GPR119 receptor (94% identity to human receptor)
ASSIGNED_LABEL: condition not met
--
COMPOUND: CS(=O)(=O)c1cc(F)c(O[C@H]2CCN(C3CCN(c4nnc(C(F)(F)F)s4)CC3)C2=O)cc1F
TGT: modified version of the GPR119 receptor (94% identity to human receptor)
ASSIGNED_LABEL: condition met
--
COMPOUND: CN(C)c1nsc(N2CCC(N3CC[C@H](Oc4cc(F)c(S(C)(=O)=O)cc4F)C3=O)CC2)n1
TGT: modified version of the GPR119 receptor (94% identity to human receptor)
ASSIGNED_LABEL: condition met
--
COMPOUND: CC(C)c1nsc(N2CCC(N3CCC(Oc4ccc(S(=O)(=O)c5ccccc5)cc4F)C3=O)CC2)n1 (stereo not shown)
TGT: modified version of the GPR119 receptor (94% identity to human receptor)
ASSIGNED_LABEL: condition not met
--
COMPOUND: CC(C)c1nsc(N2CCC(N3CC[C@@H](Nc4ccc(S(=O)(=O)N(C)C)cc4F)C3=O)CC2)n1
TGT: modified version of the GPR119 receptor (94% identity to human receptor)
ASSIGNED_LABEL: condition met

---

tested on: modified version of the GPR119 receptor (94% identity to human receptor); experiment: cAMP production assay (LANCE cAMP kit, TR-FRET) in HEK-293 cells; format: cell-based; settings: increase in cAMP relative to basal levels; agonist activity if 1.5-fold or greater
PROPERTY: Fold over baseline

COMPOUND: CC(C)c1nsc(N2CCC(N3CCC(Oc4ccc(Br)cc4F)C3=O)CC2)n1 (centres unmarked)
NUMBER: 2.7

COMPOUND: CS(=O)(=O)c1cc(F)c(O[C@H]2CCCN(C3CCN(c4nc(C(F)(F)F)ns4)CC3)C2=O)cc1F
NUMBER: 2.9

COMPOUND: Cn1cc(-c2nsc(N3CCC(N4CC[C@H](Oc5ccc(S(C)(=O)=O)cc5F)C4=O)CC3)n2)cn1
NUMBER: 2.2

COMPOUND: CC(C)c1nsc(N2CCC(N3CCC(Oc4ccc(-n5cnnn5)nc4)C3=O)CC2)n1 (centres unmarked)
NUMBER: 2.4

COMPOUND: Cc1nn(C)c(Oc2nsc(N3CCC(N4CC[C@H](Oc5ccc(S(C)(=O)=O)cc5F)C4=O)CC3)n2)c1C
NUMBER: 2.7

COMPOUND: Cc1ncccc1-c1nsc(N2CCC(N3CC[C@H](Oc4ccc(S(C)(=O)=O)cc4F)C3=O)CC2)n1
NUMBER: 2.1

COMPOUND: CS(=O)(=O)c1ccc(N[C@H]2CCN(C3CCN(c4nc(C(F)(F)F)ns4)CC3)C2=O)c(F)c1
NUMBER: 2.9

COMPOUND: CC(C)c1nsc(N2CCC(N3CC[C@H](Nc4cc(F)c(S(C)(=O)=O)cc4F)C3=O)CC2)n1
NUMBER: 2.7
